Molecular target: High affinity 3',5'-cyclic-AMP phosphodiesterase 7A (Homo sapiens, UniProt Q13946)
Sequence (Q13946 whole entry): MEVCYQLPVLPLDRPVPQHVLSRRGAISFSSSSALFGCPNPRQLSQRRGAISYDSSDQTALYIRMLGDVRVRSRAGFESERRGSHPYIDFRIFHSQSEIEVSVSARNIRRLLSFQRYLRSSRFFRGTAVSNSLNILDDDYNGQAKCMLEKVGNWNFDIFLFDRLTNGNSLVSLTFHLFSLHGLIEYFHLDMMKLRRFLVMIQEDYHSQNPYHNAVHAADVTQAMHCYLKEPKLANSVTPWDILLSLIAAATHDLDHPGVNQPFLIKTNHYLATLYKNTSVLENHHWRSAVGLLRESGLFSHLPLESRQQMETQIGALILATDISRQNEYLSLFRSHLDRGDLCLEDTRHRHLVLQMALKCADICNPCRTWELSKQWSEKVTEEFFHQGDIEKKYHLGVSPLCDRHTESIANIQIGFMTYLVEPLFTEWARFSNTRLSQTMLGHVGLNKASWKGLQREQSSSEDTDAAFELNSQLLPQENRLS
Assay: Inhibition of PDE7A assessed as hydrolysis of [3H]cAMP at 10 uM after 20 mins by scintillation proximity assay
outcomeMeasure: inhibition (%)
Express the result in % but write the number alone.

Q: Return reported inhibition. Input molecule: O=c1c2cccc(Cl)c2[nH]c(=S)n1-c1ccccc1Br
A: 63.4

Q: Indicate the recorded inhibition value for this molecule: O=c1[nH]c2ccccc2c(=O)n1-c1ccc(Br)cc1F
A: 2.5

Q: Return inhibition for the following molecule: O=c1c2ccccc2[nH]c(=S)n1CCN1CCCCC1
A: 21.2

Q: Read off the recorded inhibition for Cc1cc(Br)c2[nH]c(=S)n(-c3ccccc3)c(=O)c2c1
A: 4

Q: Report measured inhibition; entry is O=c1c2cccc(Cl)c2[nH]c(=S)n1-c1c(F)cccc1F
A: 74.9

Q: Return value of inhibition for input COc1ccc(Cn2c(=O)[nH]c3ccccc3c2=O)cc1 , no commentary.
A: 9.3

Q: Fill in reported inhibition for this entry: COc1cc2[nH]c(=S)n(CCN3CCCCC3)c(=O)c2cc1OC
A: 12.7

Q: Please list inhibition recorded for the molecule O=c1c2ccncc2[nH]c(=S)n1-c1ccccc1
A: 9.3
